Tested on: UO-31 renal
Assay: NCI-60 one-dose screen, 48 h
Details: 10 µM unless noted
About 83,000 compounds went through this panel and 20% of them were active in at least one assay; those are over-represented in the sample as a whole. Activity calls are given as the source filed them. Rule for the calls: active = growth percent below 10; inactive = the rest.
Please answer using one outcome listed in active, inactive

Some entries whose results are on file:
- Compound: "Cc1csc(Nc2nc(-c3ccccn3)nc(C(Cl)(Cl)Cl)n2)n1"
  Assigned label: "inactive"
- Compound: "Nc1c(C(=O)Nc2ccccc2C(F)(F)F)sc2nc3c(cc12)CCC3"
  Assigned label: "inactive"
- Compound: "CCOC(=O)c1c(NC(=O)c2cccc(C(F)(F)F)c2)sc2c(CN(C)C)c(O)ccc12"
  Assigned label: "inactive"
- Compound: "COc1ccc(Nc2ncc(Br)c(NCCCNC(=O)C3CCCC3)n2)cc1"
  Assigned label: "active"
- Compound: "CS(=O)(=O)Nc1cc(-c2ccc3ncnc(Nc4ccc5c(cnn5Cc5cccc(F)c5)c4)c3c2)cnc1Cl"
  Assigned label: "inactive"

[ask] Which outcome did this test record for the compound CCOC(=O)c1ccc(NC(=O)c2nc(-c3cc(OC)c(OC)c(OC)c3)n(-c3ccc(Cl)cc3)n2)cc1 ?
[reply] inactive

[ask] # outcome recorded in this test, key = CCC(C(=O)[C@@H](C)[C@@H](O)[C@H](C)[C@@H]1O[C@@H]([C@@H](CC)C(=O)ONC(=O)c2ccccc2)CC[C@@H]1C)[C@H]1O[C@]2(C=CC(=O)[C@]3(CC[C@@](C)([C@H]4CC[C@](O)(CC)[C@H](C)O4)O3)O2)[C@H](C)C[C@@H]1C (stereo partly drawn)
[reply] active

[ask] Dear all, I need the recorded test outcome for C1CN(SSN2CCOCC2)CCO1 , thank you.
[reply] active
